Molecular target: CHD1L (Homo sapiens, UniProt Q86WJ1)
Sequence (Q86WJ1 41-540 limits assumed): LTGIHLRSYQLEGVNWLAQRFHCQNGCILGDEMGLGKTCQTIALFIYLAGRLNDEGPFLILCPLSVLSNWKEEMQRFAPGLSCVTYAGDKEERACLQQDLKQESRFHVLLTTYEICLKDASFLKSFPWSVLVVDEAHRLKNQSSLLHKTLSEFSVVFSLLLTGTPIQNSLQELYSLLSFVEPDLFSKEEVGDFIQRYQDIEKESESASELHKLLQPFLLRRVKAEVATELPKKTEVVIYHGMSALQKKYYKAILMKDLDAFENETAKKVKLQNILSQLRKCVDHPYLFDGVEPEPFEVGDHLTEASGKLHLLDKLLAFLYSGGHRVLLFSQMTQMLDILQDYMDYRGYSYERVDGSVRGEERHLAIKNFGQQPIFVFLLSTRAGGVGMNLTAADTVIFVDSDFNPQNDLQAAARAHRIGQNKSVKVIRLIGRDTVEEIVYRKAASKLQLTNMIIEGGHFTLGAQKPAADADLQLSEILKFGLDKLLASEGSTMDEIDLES
Test: SAR summary from cat-CHD1L inhibition and cell-based assays
Settings: SAR statement relative to parent / 1-carbon analogs
readout.label: biological activity (cat-CHD1L inhibition and cell-based models)

Cc1cc(Nc2ccc(NC(=O)CCc3c[nH]c4ccccc34)cc2)nc(N2CCCC2)n1 = loss of activity
Cc1cc(Nc2ccc(NC(=O)CCCc3c[nH]c4ccccc34)cc2)nc(N2CCCC2)n1 = loss of activity
